Target: human recombinant PLK4 (Homo sapiens (Human), UniProt O00444)
Sequence (O00444 whole entry): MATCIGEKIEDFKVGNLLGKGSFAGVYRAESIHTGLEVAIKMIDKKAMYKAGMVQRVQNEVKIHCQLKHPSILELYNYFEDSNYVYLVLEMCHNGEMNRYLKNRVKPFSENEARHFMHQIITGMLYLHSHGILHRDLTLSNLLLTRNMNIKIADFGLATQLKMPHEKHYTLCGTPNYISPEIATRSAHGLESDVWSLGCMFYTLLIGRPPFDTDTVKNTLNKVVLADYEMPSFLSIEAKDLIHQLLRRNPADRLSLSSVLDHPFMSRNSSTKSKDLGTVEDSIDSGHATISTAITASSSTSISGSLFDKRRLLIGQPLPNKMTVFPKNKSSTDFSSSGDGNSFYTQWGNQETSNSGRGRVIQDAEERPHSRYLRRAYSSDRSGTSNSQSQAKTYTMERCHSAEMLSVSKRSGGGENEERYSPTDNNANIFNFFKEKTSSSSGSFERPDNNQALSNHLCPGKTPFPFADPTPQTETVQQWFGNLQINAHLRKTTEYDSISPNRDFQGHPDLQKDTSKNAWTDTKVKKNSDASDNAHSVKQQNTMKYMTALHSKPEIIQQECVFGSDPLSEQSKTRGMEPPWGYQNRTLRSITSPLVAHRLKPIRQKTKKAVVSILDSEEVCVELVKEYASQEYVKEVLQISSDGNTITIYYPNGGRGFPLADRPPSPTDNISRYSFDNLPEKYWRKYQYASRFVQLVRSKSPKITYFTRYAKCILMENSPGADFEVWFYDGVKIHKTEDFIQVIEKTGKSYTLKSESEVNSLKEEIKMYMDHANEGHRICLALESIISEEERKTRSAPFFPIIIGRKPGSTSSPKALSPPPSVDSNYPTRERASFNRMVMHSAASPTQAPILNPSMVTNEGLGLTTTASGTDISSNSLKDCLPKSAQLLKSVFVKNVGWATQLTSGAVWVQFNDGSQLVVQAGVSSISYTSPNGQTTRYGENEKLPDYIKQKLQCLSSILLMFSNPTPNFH
Assay: PLK4 Biochemical Assay (ADP-Glo)
Conditions: 0.5 nM PLK4, 8.0 µM ATP, 4.7 µM MBP, 6 hours at RT
Description: Activity of human recombinant PLK4 (ThermoFisher, cat #PV6396) was measured by quantification of adenosine diphosphate (ADP) using the ADP-Glo Kinase Assay Kit (Promega, cat #V9102). […] The simultaneous conversion of the remaining ADP to ATP and measurement of the newly synthesized ATP was achieved by addition of 20 µL Kinase Detection reagent (Promega, cat #V914B), incubation for 30 min at RT, and luminescence detection using the EnVision plate reader (PerkinElmer). […]
recorded-endpoint: IC50 (nM)
Numbers only, in nM.

The examples below pair each entry with its known result.
| structure-notation | experimental-result |
| --- | --- |
| COc1ccc2c(c1)[C@]1(C[C@H]1c1ccc3c(Nc4ncnc(N5CC(O)C5)c4OC)n[nH]c3c1)C(=O)N2 | 14.5 |
| COc1ccc2c(c1)[C@]1(C[C@H]1c1ccc3c(Nc4nc(C5CC5)nc(N5CCS(=O)(=O)CC5)c4Cl)n[nH]c3c1)C(=O)N2 | 1.1 |
| COc1ccc2c(c1)[C@]1(C[C@H]1c1ccc3c(Nc4nc(C)ncc4OC)n[nH]c3c1F)C(=O)N2 | 4.8 |

query: What measured IC50 goes with CCOc1cncnc1Nc1n[nH]c2cc([C@@H]3C[C@@]34C(=O)Nc3ccc(OC)cc34)ccc12 ?
result: 2.18

From: patent US20230365537A1
